Here the recorded maximum MFI, fold over isotype control background is given for each entry.
Target: T1, rhesus ERBB3 on transiently transfected HEK-293 cells (rhesus monkey (Macaca mulatta), UniProt P21860 20-1342 (human entry))
T1 construct: also called rhesus ERBB3+ HEK-293 cells
T1 chain: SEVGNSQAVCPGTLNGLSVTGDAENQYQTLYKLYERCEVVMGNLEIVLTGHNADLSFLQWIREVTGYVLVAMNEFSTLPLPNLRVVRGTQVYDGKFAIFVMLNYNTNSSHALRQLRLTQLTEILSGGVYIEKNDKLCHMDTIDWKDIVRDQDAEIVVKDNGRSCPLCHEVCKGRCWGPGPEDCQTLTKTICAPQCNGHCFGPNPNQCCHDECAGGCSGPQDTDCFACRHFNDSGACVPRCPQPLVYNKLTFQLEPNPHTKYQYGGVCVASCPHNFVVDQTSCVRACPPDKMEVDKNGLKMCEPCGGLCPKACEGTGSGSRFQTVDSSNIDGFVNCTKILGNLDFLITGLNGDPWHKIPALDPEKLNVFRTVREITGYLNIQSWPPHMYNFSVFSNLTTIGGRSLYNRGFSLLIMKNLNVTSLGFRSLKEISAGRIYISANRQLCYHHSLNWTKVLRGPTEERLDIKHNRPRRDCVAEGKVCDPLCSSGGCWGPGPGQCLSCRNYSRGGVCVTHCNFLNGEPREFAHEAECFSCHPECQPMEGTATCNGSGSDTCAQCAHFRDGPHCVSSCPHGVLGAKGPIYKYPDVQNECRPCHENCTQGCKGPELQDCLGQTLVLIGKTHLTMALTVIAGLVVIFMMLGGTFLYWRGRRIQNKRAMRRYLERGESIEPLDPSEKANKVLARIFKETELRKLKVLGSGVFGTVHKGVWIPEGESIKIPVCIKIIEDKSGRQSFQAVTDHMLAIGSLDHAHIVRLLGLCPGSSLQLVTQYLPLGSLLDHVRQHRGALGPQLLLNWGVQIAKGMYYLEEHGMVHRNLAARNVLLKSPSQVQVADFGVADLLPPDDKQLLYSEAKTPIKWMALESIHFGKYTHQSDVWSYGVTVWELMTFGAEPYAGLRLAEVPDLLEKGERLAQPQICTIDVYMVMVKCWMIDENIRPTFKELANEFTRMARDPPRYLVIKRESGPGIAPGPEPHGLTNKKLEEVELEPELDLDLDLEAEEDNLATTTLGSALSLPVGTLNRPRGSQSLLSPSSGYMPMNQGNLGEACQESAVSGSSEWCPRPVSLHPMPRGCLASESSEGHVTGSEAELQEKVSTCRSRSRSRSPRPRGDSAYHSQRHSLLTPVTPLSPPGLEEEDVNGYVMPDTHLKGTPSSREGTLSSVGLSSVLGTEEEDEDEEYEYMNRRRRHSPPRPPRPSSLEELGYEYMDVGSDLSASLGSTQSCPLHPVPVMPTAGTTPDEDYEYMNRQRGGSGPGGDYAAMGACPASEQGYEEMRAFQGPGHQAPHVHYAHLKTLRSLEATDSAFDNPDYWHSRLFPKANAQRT
Test: flow cytometry, rhesus ERBB3-transfected HEK-293

binder	measured_value
MH4 IgG1null (antibody, V domains shown, Designer (Maximally Humanized) clone; Human IgG1null and human Ckappa) VH: QVQLVESGGGLVKPGGSLRLSCAASGFTFSDYGMSWIRQAPGKGLEWVSTISDSGSYIYYADSVKGRFTISRDNAKNSLYLQMNSLRAEDTAVYYCAREWGDYDGFDEWGQGTLVTVSS VL: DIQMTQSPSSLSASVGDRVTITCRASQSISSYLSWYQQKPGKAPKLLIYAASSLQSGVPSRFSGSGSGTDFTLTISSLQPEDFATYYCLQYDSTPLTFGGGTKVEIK	> 20 fold

Consider now this further binder.
Tell me the measured maximum MFI, fold over isotype control background of MH1 IgG1null (antibody, V domains shown, Designer (Maximally Humanized) clone; Human IgG1null and human Ckappa) VH: QVQLVESGGGLVKPGGSLRLSCAASGFTFSDYGMSWIRQAPGKGLEWVSTISDSGSYIYYADSVKGRFTISRDNAKNSLYLQMNSLRAEDTAVYYCARELGDYDGFDYWGQGTLVTVSS VL: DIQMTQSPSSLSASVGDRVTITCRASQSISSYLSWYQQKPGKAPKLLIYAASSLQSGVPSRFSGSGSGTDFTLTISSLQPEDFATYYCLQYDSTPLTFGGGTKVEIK , please.
> 20 fold
